Would you mind telling me the reported growth inhibition of each entry?
# test_method_notes: NCI Yeast Anticancer Drug Screen. Data for the mec2-1 strain (AID 157)
# condition_info: S. cerevisiae mec2-1 strain, active compounds read high; at 50.0 µM unless noted
# Description: Growth inhibition of yeast strains with defined genetic alterations is measured as a screen for potential anti-cancer activity. Selected strains with alterations in DNA damage repair or cell cycle control were exposed to compounds and growth inhibition was measured relative to vehicle treated controls. The strain used in this assay is mec2-1
This is part of a sample that, as a whole, favours compounds with a hit. Of some 79,000 tested, about 15% had one in any assay.
Answer format: numeric, % implied, no suffix.

Would you kindly share the measured growth inhibition for `Cc1cccc2c1/C(=C1/c3ccccc3C(=O)c3cccc(C)c31)c1ccccc1C2=O` ?
-24.1

Form field: reported growth inhibition of `COc1ccc(C2=N/C(=C\c3ccccc3)C(=O)O2)cc1`
8.6

Bench note: what growth inhibition did `CC(/C=C/C(=O)c1sc(-n2nc(-c3ccccc3)cc2-c2ccccc2)nc1C)=C\c1ccccc1` show?
5.25

I have this molecule here, CN1N=C(c2ccncc2)OC1c1cccc(C(F)(F)F)c1 (stereo unspecified) , and I need its recorded growth inhibition.
-65.9

growth inhibition for `CCOC(=O)CSCC(=O)OCC` ?
-9

Quick check: growth inhibition of `CCN(CC)Cc1cc(O)ccc1NCCCNc1ccnc2cc(Cl)ccc12` ?
11.1

====

Task for the reader: assign each of the following molecules its reported growth inhibition.
# test_method_notes: NCI Yeast Anticancer Drug Screen. Data for the cln2 rad14 strain (AID 165);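 further: 0% = growth equal to vehicle treated cultures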
# condition_info: S. cerevisiae cln2 rad14 strain, active compounds read high; at 50.0 µM unless noted
Compounds without any hit were thinned out: in the full panel of roughly 79,000, 15% have a hit.
Write it as a number; the unit % goes unstated.

Can you share its growth inhibition? I mean this molecule: COc1ccc(NC(=O)C(C)Oc2ccc(OCC3CCCCC3)cc2)cc1 (centres undefined)
-26.1

What measured growth inhibition goes with COc1ccc(N2C(N)=C(C#N)C(C#N)(C#N)C2c2cccc([N+](=O)[O-])c2)cc1 (centres undefined) ?
0.25

// returns reported growth inhibition for input `CC(C)(C)NC(=O)Nc1ccc2ccccc2c1`
-68.5

What value of growth inhibition has been recorded for this entry: `CSc1ccc(Cl)cc1`
16.9

Entry under review: `CCOC(=O)C(=CNC(=S)N=Nc1c(O)[nH]c2ccccc12)C(=O)OCC` . Reported growth inhibition?
2.85

Form field: reported growth inhibition of `COc1ccc2[nH]c3c(C)c4c(c(C)c3c2c1)CN(C)C=C4`
21.2

Fill in: growth inhibition of `COc1ccc(C(=O)O)c(Cc2ccc3ccccc3c2)c1` is ___
10

Could you tell me which growth inhibition is on file for `O=C(NNC(=O)c1ccc(Cl)c(Cl)c1)c1ccccc1` ?
-7.95

// lookup growth inhibition for `O=c1[nH]n(Cc2ccccc2CCl)c2ccc([N+](=O)[O-])cc12`
24

I'd like to know its growth inhibition. The molecule in question is `COC(=O)OCCOC(=O)OC`
18.1

For `O=NN(CCCl)C(=O)Oc1ccccc1` , what is its reported growth inhibition?
0.15

What value of measured growth inhibition is listed for OCC1OC(OC2C(CO)OC(O)C(O)C2O)C(O)C(O)C1O (centres undefined) ?
13.3

Quick check: growth inhibition of `COc1cc(N(Cc2ccc3nc(OC)c(OC)nc3c2)Cc2ccc3nc(OC)c(OC)nc3c2)cc(OC)c1OC` ?
-6.4

Fill in the blank: the reported growth inhibition of O=C(O)c1ccc(NCC(O)COc2ccc([N+](=O)[O-])cc2)cc1 (centres undefined) is ____.
5.4
